Biological target: UniProt P49841
Sequence (P49841 whole entry): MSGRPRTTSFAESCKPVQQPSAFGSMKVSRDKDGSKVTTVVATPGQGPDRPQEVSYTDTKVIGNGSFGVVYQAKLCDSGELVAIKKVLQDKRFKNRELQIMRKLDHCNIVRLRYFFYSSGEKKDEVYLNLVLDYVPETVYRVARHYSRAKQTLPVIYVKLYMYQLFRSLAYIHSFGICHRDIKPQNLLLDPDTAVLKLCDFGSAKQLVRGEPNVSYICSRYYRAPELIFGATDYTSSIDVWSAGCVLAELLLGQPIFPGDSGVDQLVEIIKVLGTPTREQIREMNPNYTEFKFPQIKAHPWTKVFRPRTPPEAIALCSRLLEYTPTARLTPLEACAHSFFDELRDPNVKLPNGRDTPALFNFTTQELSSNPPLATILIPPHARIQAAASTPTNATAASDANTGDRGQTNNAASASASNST
Experiment: GSK3β Scintillation Proximity Assay (ATP competition)
Conditions: recombinant human GSK3β, SPA, 1 μM ATP, Km of ATP 20 μM used to calculate Ki
Structures can show the parent of a compound that is named as a salt.
observed_property: Ki (nM)

molecule	Ki (nM)
COCCCNC(=O)c1ccnc2[nH]c(-c3ccc(C(=O)N4CCOCC4)cc3)nc12 [Example 7, hydrochloride]	36

P = COCCCNC(=O)c1ccnc2[nH]c(-c3ccc(C(=O)N4CCN(C)CC4)cc3)nc12 [Example 6, hydrochloride]
Q = COCCCNC(=O)c1ccnc2[nH]c(-c3cccc(COCC(F)(F)C(F)F)c3)nc12 [Example 4, hydrochloride]
R = COCCCNC(=O)c1ccnc2[nH]c(-c3ccc(C(F)(F)F)cc3)nc12 [Example 3, hydrochloride]
### Prompt Please list these molecules in decreasing order of Ki. Response format: the labels, sorted as the prompt asks.
### Response P, R, Q
